- target-system: hFASN enzyme (full length) (Homo sapiens)
- Construct: 10 μL hFASN enzyme (full length, 300 ng, purified in house); made in house
- Sequence (P49327 whole entry): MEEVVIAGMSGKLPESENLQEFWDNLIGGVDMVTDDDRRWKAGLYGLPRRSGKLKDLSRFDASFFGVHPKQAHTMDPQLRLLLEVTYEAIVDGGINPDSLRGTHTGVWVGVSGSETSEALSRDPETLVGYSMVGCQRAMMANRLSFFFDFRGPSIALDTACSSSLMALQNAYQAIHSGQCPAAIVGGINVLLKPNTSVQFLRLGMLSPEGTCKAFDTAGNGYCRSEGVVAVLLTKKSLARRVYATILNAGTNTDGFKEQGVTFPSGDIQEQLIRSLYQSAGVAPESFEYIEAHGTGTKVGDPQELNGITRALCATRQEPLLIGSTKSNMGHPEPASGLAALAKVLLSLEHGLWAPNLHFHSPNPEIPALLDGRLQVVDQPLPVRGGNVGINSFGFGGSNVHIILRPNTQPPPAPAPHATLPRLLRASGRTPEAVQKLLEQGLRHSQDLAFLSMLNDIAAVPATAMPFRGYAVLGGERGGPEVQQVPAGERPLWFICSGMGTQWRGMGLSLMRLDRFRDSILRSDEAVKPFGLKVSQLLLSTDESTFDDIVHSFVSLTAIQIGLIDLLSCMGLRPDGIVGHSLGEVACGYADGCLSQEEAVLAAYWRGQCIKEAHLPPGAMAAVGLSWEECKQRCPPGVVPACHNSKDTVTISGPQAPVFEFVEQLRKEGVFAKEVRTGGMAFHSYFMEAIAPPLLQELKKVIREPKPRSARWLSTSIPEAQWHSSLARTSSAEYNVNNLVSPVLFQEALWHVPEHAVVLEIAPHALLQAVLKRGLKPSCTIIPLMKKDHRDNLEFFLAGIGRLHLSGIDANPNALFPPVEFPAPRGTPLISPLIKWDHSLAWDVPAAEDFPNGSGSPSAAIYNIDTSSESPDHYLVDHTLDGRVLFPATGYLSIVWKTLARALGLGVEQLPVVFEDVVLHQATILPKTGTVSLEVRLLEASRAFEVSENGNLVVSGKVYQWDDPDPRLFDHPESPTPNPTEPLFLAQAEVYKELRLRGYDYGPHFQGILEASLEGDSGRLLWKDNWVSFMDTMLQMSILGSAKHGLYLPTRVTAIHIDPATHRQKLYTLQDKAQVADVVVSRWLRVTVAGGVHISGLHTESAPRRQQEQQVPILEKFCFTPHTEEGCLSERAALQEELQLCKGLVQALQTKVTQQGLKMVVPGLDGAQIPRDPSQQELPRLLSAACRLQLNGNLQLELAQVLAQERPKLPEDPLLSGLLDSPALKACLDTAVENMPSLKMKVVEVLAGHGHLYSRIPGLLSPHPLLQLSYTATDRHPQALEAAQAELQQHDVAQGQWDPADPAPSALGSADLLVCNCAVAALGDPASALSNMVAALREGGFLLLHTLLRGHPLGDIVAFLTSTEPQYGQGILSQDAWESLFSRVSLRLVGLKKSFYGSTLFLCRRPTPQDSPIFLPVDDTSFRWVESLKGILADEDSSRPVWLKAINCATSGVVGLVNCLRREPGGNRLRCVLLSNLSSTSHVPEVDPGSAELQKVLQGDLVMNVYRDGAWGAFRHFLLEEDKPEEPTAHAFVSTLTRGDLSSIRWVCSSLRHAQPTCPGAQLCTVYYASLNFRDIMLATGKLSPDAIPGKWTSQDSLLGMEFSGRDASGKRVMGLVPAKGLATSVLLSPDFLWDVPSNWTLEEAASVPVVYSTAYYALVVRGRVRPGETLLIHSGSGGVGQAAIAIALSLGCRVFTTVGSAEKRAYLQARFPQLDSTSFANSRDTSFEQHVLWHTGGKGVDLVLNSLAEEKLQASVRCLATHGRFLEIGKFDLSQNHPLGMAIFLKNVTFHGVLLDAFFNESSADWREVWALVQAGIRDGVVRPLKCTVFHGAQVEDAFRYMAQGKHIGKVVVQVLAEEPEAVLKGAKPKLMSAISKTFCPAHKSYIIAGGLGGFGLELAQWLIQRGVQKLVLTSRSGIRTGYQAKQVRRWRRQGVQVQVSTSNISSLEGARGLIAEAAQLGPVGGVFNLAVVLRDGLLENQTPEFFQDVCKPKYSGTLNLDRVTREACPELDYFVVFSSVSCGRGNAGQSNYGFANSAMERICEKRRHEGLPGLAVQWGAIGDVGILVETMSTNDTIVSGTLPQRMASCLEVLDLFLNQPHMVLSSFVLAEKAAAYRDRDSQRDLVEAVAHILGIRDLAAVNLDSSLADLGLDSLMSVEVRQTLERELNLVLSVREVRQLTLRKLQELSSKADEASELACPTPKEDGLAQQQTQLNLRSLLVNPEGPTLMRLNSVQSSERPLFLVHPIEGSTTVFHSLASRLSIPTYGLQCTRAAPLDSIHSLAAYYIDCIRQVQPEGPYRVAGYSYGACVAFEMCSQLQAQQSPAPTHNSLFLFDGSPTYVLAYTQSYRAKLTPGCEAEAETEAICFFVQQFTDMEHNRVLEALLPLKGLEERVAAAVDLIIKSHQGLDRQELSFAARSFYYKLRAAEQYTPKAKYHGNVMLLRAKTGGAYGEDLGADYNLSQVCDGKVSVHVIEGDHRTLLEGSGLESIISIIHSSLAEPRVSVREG
- protocol: Fatty Acid Synthase (FASN) inhibition scintillation proximity assay
- Type: biochemical
- protocol-conditions: read-out: Human FASN % inhibition @ 10 μM, 10 μM test compound
reported-metric: inhibition at 10 µM (%)

Reference set, count: 4
N#Cc1ccc2cc(-c3ccc(C4=NC5(CC5)C(=O)N4CC4CN(C(=O)C5(O)CC5)C4)c(F)c3)ccc2c1    99
CN(C)CC(=O)N1CCC2(CC1)N=C(c1ccc(-c3ccc4occc4c3)cc1)N(C[C@@H]1CCN(C(=O)C3CC3)C1)C2=O    116
Cc1ccc(-c2ccc(-c3ccc(C4=NC5(CC5)C(=O)N4C[C@H]4CCN(C(=O)C5CC5)C4)cc3)cc2)cc1    91
O=C(C1CC1)N1CC(CN2C(=O)C3(CC3)N=C2c2ccc(-c3ccc4c(cnn4C4COC4)c3)cc2)C1    14

A. CC(C)C(=O)N1CCC2(CC1)N=C(c1ccc(-c3ccc4[nH]ncc4c3)cc1)N(CC1CN(C(=O)C3CC3)C1)C2=O
B. COc1nn(C)c2ccc(-c3ccc(C4=NC5(CC5)C(=O)N4C[C@@H]4CCN(C(=O)C5CC5)C4)cc3)cc12
C. Cn1cc(-c2ccc(-c3ccc(C4=NC5(CCOC5)C(=O)N4CC4CCN(C(=O)c5nccs5)C4)cc3)cc2)cn1 (centres unmarked)
D. Cn1cc(-c2ccc(-c3ccc(C4=NC5(CCOCC5)C(=O)N4C[C@@H]4CCN(C(=O)C(F)(F)F)C4)cc3)cc2)cn1
// query List the 4 entries from lowest inhibition at 10 µM to highest inhibition at 10 µM value. Response format: the labels, sorted as the prompt asks.
// result C, D, A, B
